# measured_target: recombinant human DGAT1 (hDGAT1) (Homo sapiens, UniProt O75907)
# Construct: host or cells: Sf9 insect cells (baculovirus expression system), used as membrane preparation
# Sequence (O75907 1-488): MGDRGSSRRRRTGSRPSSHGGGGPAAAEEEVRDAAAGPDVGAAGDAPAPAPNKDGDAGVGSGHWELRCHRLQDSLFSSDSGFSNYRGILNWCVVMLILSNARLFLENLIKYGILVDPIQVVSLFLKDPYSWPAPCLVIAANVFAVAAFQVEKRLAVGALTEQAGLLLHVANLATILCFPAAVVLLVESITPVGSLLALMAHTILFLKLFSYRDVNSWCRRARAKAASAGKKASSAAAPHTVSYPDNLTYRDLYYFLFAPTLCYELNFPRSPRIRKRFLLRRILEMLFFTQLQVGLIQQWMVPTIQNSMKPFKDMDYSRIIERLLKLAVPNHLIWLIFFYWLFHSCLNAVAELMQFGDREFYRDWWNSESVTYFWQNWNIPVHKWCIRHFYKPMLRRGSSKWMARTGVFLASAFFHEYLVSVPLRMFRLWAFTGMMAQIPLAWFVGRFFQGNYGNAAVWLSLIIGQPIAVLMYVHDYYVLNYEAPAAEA
# procedure_summary: Membrane-based recombinant hDGAT1 inhibitory activity using LCMS method (Method A)
# Assay type: biochemical
# protocol_conditions: Sf9 membranes expressing hDGAT1
pIC50: −log10 of the molar value.
Recorded pIC50 by entry
property: pIC50

INSERT INTO results (compound, measured_target, property, measured_result) VALUES
  ('O=C(Nc1ccc(N2CCC3(CC2)CC3C(=O)O)nc1)c1nnc(Nc2ccc(F)cc2)o1 (centres unmarked) [Example B18]', 'recombinant human DGAT1 (hDGAT1) (Homo sapiens, UniProt O75907)', 'pIC50', 7.23),
  ('O=C(Nc1ccc(N2CCC3(CC2)CC3C(=O)O)cc1)c1nnc(Nc2ccc(F)c(F)c2)o1 (centres unmarked) [Example B28]', 'recombinant human DGAT1 (hDGAT1) (Homo sapiens, UniProt O75907)', 'pIC50', 7.04),
  ('O=C(Nc1ccc(N2CCCC3(CC3C(=O)O)C2)nc1)c1nnc(Nc2ccc(F)c(F)c2)o1 (centres unmarked) [Example B22]', 'recombinant human DGAT1 (hDGAT1) (Homo sapiens, UniProt O75907)', 'pIC50', 7.28),
  ('O=C(Nc1ccc([C@H]2CC[C@@]3(CC2)CC3C(=O)O)nc1)c1nnc(Nc2ccc(F)c(F)c2)o1 (some centres unmarked) [Example B25]', 'recombinant human DGAT1 (hDGAT1) (Homo sapiens, UniProt O75907)', 'pIC50', 8.35),
  ('Nc1ncnc2c1C(=O)N(c1ccc(C3CCC4(CC3)CC4C(=O)O)cc1)CCO2 (centres unmarked) [Example I4]', 'recombinant human DGAT1 (hDGAT1) (Homo sapiens, UniProt O75907)', 'pIC50', 7.03),
  ('O=C(O)CC1CC2(CCC(c3ccc(NC(=O)c4nnc(Nc5ccc(F)c(F)c5)o4)cc3)CC2)C1 (centres unmarked) [Example B8]', 'recombinant human DGAT1 (hDGAT1) (Homo sapiens, UniProt O75907)', 'pIC50', 7.10),
  ('O=C(O)CC1CCC2(CC1)CCC(c1ccc(NC(=O)c3nnc(Nc4ccccc4)o3)cc1)CC2 (centres unmarked) [Example B4]', 'recombinant human DGAT1 (hDGAT1) (Homo sapiens, UniProt O75907)', 'pIC50', 6.93),
  ('O=C(Nc1ccc(N2CCC3(CC2)CC3C(=O)O)cc1)c1nnc(Nc2ccccc2)o1 (centres unmarked) [Example B27]', 'recombinant human DGAT1 (hDGAT1) (Homo sapiens, UniProt O75907)', 'pIC50', 6.78);
